Cited source for all entries: patent US20250195463A1

# PROTOCOL_NOTES: Stability in aqueous medium (dimethyl sulfoxide/Dulbecco's Modified Eagle Medium) by UV-Vis spectroscopy
# Format: physicochemical
# PARTICULARS: 5% dimethyl sulfoxide/95% Dulbecco's Modified Eagle Medium; time 24 h; band 358-400 nm (λmax in column head)
In this section we review reported Relative variation of the maximum absorbance of the charge transfer bands values for a set of compounds.
Express the result in % but write the number alone.

Example entries and their recorded answers appear below.
- COMPOUND: "CCC(=O)C1=C[CH]([Ru-]2([PH](c3ccccc3)(c3ccccc3)c3ccccc3)[n+]3ccccc3-c3cccc[n+]32)C=C1.O=S(=O)([O-])C(F)(F)F (stereo not drawn) [compound 8]"
  ENDPOINT_VALUE: "−0.9"
- COMPOUND: "NNC(=O)C1=C[CH]([Ru-]2([PH](c3ccccc3)(c3ccccc3)c3ccccc3)[n+]3ccccc3-c3cccc[n+]32)C=C1.O=S(=O)([O-])C(F)(F)F (stereo not drawn) [compound 4]"
  ENDPOINT_VALUE: 3.0

Return the recorded Relative variation of the maximum absorbance of the charge transfer bands value; entry: CCOC(=O)Oc1cc[n+]2c(c1)-c1cc(OC)cc[n+]1[Ru-]2([CH]1C=CC=C1)[PH](c1ccccc1)(c1ccccc1)c1ccccc1.O=S(=O)([O-])C(F)(F)F (stereo not drawn) [compound 11]
0.4

----------
# PROTOCOL_NOTES: Stability in aqueous medium (dimethyl sulfoxide/Dulbecco's Modified Eagle Medium) by UV-Vis spectroscopy
# Type: physicochemical
# PARTICULARS: 5% dimethyl sulfoxide/95% Dulbecco's Modified Eagle Medium; time 4 h; band 358-400 nm (λmax in column head)
PROPERTY_NAME: Relative variation of the maximum absorbance of the charge transfer bands (%)
Numbers only here, please. The scale is %.

- MOLECULE: "CCOC(=O)Oc1cc[n+]2c(c1)-c1cc(OC)cc[n+]1[Ru-]2([CH]1C=CC=C1)[PH](c1ccccc1)(c1ccccc1)c1ccccc1.O=S(=O)([O-])C(F)(F)F (stereo not drawn)"
  ENDPOINT_VALUE: 0.0
- MOLECULE: "O=C(Cc1ccccc1)C1=C[CH]([Ru-]2([PH](c3ccccc3)(c3ccccc3)c3ccccc3)[n+]3ccccc3-c3cccc[n+]32)C=C1.O=S(=O)([O-])C(F)(F)F (stereo not drawn)"
  ENDPOINT_VALUE: "−1.5"

Please turn your attention to the following entry.
State its Relative variation of the maximum absorbance of the charge transfer bands: COc1cc[n+]2c(c1)-c1cc(O)cc[n+]1[Ru-]2([CH]1C=CC=C1)[PH](c1ccccc1)(c1ccccc1)c1ccccc1.O=S(=O)([O-])C(F)(F)F (stereo not drawn)
−3.6

----------
Listed next: entries and their corresponding Relative variation of the maximum absorbance of the charge transfer bands.
# PROTOCOL_NOTES: Stability in aqueous medium (dimethyl sulfoxide/Dulbecco's Modified Eagle Medium) by UV-Vis spectroscopy
# Format: physicochemical
# PARTICULARS: 5% dimethyl sulfoxide/95% Dulbecco's Modified Eagle Medium; time 0.5 h; band 358-400 nm (λmax in column head)
Write the number in % without appending the unit.

See these solved cases before continuing.
- MOLECULE: "CC(=O)C1=C[CH]([Ru-]2([PH](c3ccccc3)(c3ccccc3)c3ccccc3)[n+]3ccccc3-c3cccc[n+]32)C=C1.O=S(=O)([O-])C(F)(F)F (stereo not drawn)"
  READOUT_UNIT: "%"
  ENDPOINT_VALUE: "−2.1"
- MOLECULE: "O=C(Cc1ccccc1)C1=C[CH]([Ru-]2([PH](c3ccccc3)(c3ccccc3)c3ccccc3)[n+]3ccccc3-c3cccc[n+]32)C=C1.O=S(=O)([O-])C(F)(F)F (stereo not drawn)"
  READOUT_UNIT: "%"
  ENDPOINT_VALUE: "−0.8"

Proceed to the following item.
Answer with the recorded Relative variation of the maximum absorbance of the charge transfer bands of CCOC(=O)Oc1cc[n+]2c(c1)-c1cc(OC)cc[n+]1[Ru-]2([CH]1C=CC=C1)[PH](c1ccccc1)(c1ccccc1)c1ccccc1.O=S(=O)([O-])C(F)(F)F (stereo not drawn) only.
0.0
